Source listed as patent US20080249081A1.

- SYSTEM_TESTED: human MrgX1 receptor (Homo sapiens, UniProt Q96LB2)
- Sequence (Q96LB2 whole entry): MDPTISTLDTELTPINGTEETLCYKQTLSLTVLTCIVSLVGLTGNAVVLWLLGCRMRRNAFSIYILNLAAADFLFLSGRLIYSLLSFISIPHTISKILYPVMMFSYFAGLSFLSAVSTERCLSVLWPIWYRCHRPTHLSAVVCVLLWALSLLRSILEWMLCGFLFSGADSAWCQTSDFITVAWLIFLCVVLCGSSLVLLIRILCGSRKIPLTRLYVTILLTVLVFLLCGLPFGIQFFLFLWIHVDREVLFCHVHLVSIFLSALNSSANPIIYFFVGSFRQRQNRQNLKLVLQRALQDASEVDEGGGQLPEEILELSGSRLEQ
- PROTOCOL_SUMMARY: Intracellular calcium mobilization (Fura-2) in transfected cells
- Assay type: cell-based
- Design: expressed in transfected cells
- TEST_CONTEXT: human MrgX1
MEASUREMENT_LABEL: MrgX1 pEC50
Enter a number only.

# annotated cases, reported MrgX1 pEC50 shown
| COMPOUND | MrgX1 pEC50 |
| --- | --- |
| Cc1cccc(N2CCN(C(=O)c3ccc4c(c3)nc(-c3cccc(Oc5ccccc5)c3)n4[C@@H](CCCNC(=N)N)C(N)=O)CC2C)c1 (stereo partly shown) [Compound 2] | 7.6 |
| N=C(N)NCCC[C@@H](C(N)=O)n1c(-c2cccc(Oc3ccccc3)c2)nc2cc(C(=O)NCCc3ccccn3)ccc21 [Compound 3] | 6.4 |
| CN(CCc1ccccn1)C(=O)c1ccc2c(c1)nc(-c1cccc(Oc3ccccc3)c1)n2[C@@H](CCCNC(=N)N)C(N)=O [Compound 4] | 6.7 |

# evaluate next
Query: What is its MrgX1 pEC50 for human MrgX1 receptor (Homo sapiens, UniProt Q96LB2)? Entry: N=C(N)NCCC[C@@H](C(N)=O)n1c(-c2cccc(Oc3ccccc3)c2)nc2cc(C(=O)N3CCN(c4ccc(F)cc4)CC3)ccc21 [Compound 1]
Response: 6.6

###

- SYSTEM_TESTED: UniProt Q96LB2
- PROTOCOL_SUMMARY: Receptor Selection and Amplification Technology (R-SAT) functional assay, transfected NIH3T3 cells
- Format: cell-based
- Parameters: expressed in transfected cells; host or cells: NIH3T3
- TEST_CONTEXT: percent maximal activation relative to Bam22
MEASUREMENT_LABEL: Human-MrgX1 Eff(%)
Supply the numeric figure in %, leaving out any unit text.

| COMPOUND | SYSTEM_TESTED | UNIT_NAME | TEST_VALUE |
| --- | --- | --- | --- |
| N=C(N)NCCC[C@@H](C(N)=O)n1c(-c2cccc(Oc3ccccc3)c2)nc2cc(C(=O)N3CCN(c4ccc(F)cc4)CC3)ccc21 [Compound 1] | UniProt Q96LB2 | % | 146 |
| N=C(N)NCCCC(C(N)=O)n1c(-c2cccc(Oc3ccccc3)c2)nc2cc(C(=O)Nc3nccs3)ccc21 (stereo not shown) [Compound 31] | UniProt Q96LB2 | % | 73 |
| CCCCNC(=O)c1ccc2c(c1)nc(-c1cccc(Oc3ccccc3)c1)n2C(CCCNC(=N)N)C(N)=O (stereo not shown) [Compound 30] | UniProt Q96LB2 | % | 150 |
| N=C(N)NCCC[C@@H](C(N)=O)n1c(-c2cccc(Oc3ccccc3)c2)nc2cc(C(=O)NCCc3ccccn3)ccc21 [Compound 3] | UniProt Q96LB2 | % | 176 |
| CN(CCc1ccccn1)C(=O)c1ccc2c(c1)nc(-c1cccc(Oc3ccccc3)c1)n2[C@@H](CCCNC(=N)N)C(N)=O [Compound 4] | UniProt Q96LB2 | % | 325 |

Query: Given the entry Cc1cccc(N2CCN(C(=O)c3ccc4c(c3)nc(-c3cccc(Oc5ccccc5)c3)n4[C@@H](CCCNC(=N)N)C(N)=O)CC2C)c1 (stereo partly shown) [Compound 2] , report its measured Human-MrgX1 Eff(%).
Response: 220

Query: Entry COc1ccc(NC(=O)c2ccc3c(c2)nc(-c2cccc(Oc4ccccc4)c2)n3C(CCCNC(=N)N)C(N)=O)cc1 (stereo not shown) [Compound 27] : reported Human-MrgX1 Eff(%) = ?
Response: 133
